# procedure_text: NFAT Signaling Pathway (AID 444);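 also: carbachol stimulus at about its EC50 of 1 µM final; % is scaled to controls: 0 for no effect and ±100 for the full control effect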
# condition_summary: Jurkat NFAT-bla M1, carbachol, beta-lactamase ratio, 5 h; at 17.2 µM (top of the series) unless noted
Inconclusive results are not listed.
observation_type: activity change, negative = inhibition (%)

1. C[C@]12CC[C@@H]3c4ccc(O[C@@H]5O[C@H](C(=O)O)[C@@H](O)[C@H](O)[C@H]5O)cc4CC[C@H]3[C@@H]1C[C@@H](O)[C@@H]2O = -30
2. CCCOc1ccc(/C(O)=C2/C(=O)C(=O)N(CCCN3CCOCC3)C2c2ccncc2)cc1 (stereo unspecified) = 16.4
3. COc1ccc(OC)c(N=C(C)C2=C(O)COC2=O)c1 = 0.486
4. CC(C)COc1nc2ccccc2nc1C(C#N)C(=O)NC1CCCCC1 (stereo unspecified) = 0.574
5. C=CCn1c(C2CC(=O)N(c3ccc(C)cc3)C2)nc2ccccc21 (stereo unspecified) = 5.1
6. O=C1NCC(COCC2CC=CCC2)O1 (stereo unspecified) = 15
7. O=C(NC1(C(F)(F)F)C(=O)Nc2c1c(=O)[nH]c(=O)n2Cc1ccco1)C1CCCCC1 (stereo unspecified) = -10.2
8. COc1ccc(/C(O)=C2\C(=O)C(=O)N(CCN(C)C)C2c2cccc(OC)c2OC)cc1 (stereo unspecified) = -5.32
9. C/C(=N\O)C1(C)N(O)C(C)(C)C(c2ccco2)=[N+]1[O-] (stereo unspecified) = 9.27
10. CC1C/C=C/C=C/C=C/C=C/C(O[C@@H]2O[C@H](C)[C@@H](O)[C@H](N)[C@@H]2O)CC2OC(O)(CC(O)CC3OC3/C=C/C(=O)O1)CC(O)C2C(=O)O (stereo partly specified) = 0.554
11. CCN(CC)C(=O)C1CCN(c2ncnc3c2cnn3-c2ccc(C)cc2C)CC1 = 7.48
12. Cc1cc(/C=N\O)c(C)n1-c1ccncc1 = 23.9
13. CN(CCOC(=O)c1ccc2c(c1)OCCO2)Cc1ccccc1 = -3.33
14. CC(C)c1[nH]c(=O)c(C#N)c2c1CSC(C)(C)C2 = -5.85
15. Cc1c(=O)n(OCc2c(F)cccc2F)c2ccccc2[n+]1[O-] = -0.573
16. CCOC(=O)c1cc(C)n(Cc2cccc(OC)c2OC)c1C = -21.6
17. CCOC(=O)c1oc2cc(O)cc(C)c2c(=O)c1-c1cscn1 = 11.5
18. CCOC(=O)C1=C(C)N=C2SC(C)C(=O)N2C1c1ccc(OC(C)=O)c(OC)c1 (stereo unspecified) = 10.3
19. CN(C)c1nc2sc3c(c2c(=O)n1C)CC(C)(C)OC3 = -2.36
20. CCOC(=O)CC1=NC(=O)CS1 = 0.359
21. CCOC(=O)c1c(C(C#N)C#N)cc(C)nc1C = -6.15
22. O=C1C=C(O)CC(c2cccs2)C1 (stereo unspecified) = -1.83
23. C[n+]1cccc(CNC(=O)/C=N/O)c1 = 2.4
24. c1ccc(-n2c(Cc3cccnc3)nc3cnccc32)cc1 = 15.3
25. COc1ccc(C(=O)Cn2c(Br)nc3c2c(=O)n(C)c(=O)n3C)cc1OC = 25.7
26. CCc1cc(=O)oc2cc(C)c(CN3CCCC3)c(O)c12 = -9.64
27. CCOC(=O)CC(=O)CSc1nc2c(cc1C#N)CCCCC2 = 1.41
28. Cc1cc(N2C(=O)C(=O)/C(=C(/O)c3ccc(F)cc3)C2c2cccc(Br)c2)no1 (stereo unspecified) = 2.37
29. Cc1ccc(S(=O)(=O)NC(=O)NCc2ccc3c(c2)OCO3)cc1 = -5.13
30. CSC(=Nc1ccccc1)C1=C(O)COC1=O = 4.52
31. COc1cccc(N2CCN(C3CC(=O)N(c4cccc(Cl)c4)C3=O)CC2)c1 (stereo unspecified) = 12.6
32. Oc1ccc2ccccc2c1/C=N/n1cnnc1 = 6.11
33. CCOc1ccc(CSC(CC(=O)O)C(=O)O)cc1 (stereo unspecified) = -5.85
34. O=c1c2c3c(sc2nc2n1CCCS2)CCCC3 = -17.4
35. N#CC12CCCCC1CC1CCCCC1(C#N)N2Cc1cccnc1 (stereo unspecified) = -6.79
36. O=C(c1cccc2ccccc12)N1CCC(N2CCN(c3ccccc3)CC2)CC1 = -0.0782
37. O=c1cc(N2CCCCC2)nc2n1CCCS2 = -21.5
38. CCC1=C(C(=O)OC)C(c2cc(OC)ccc2OC)C(C#N)=C(N)O1 (stereo unspecified) = -14.5
39. COc1ccc(CCNC(=O)c2ccc(=O)[nH]n2)cc1OC = -8.89
40. Cc1cn2c(-c3ccncc3)nnc2s1 = 1.86
41. Cc1nc2ccccc2cc1O = 7.71
42. CC/C(C)=C1\SC(N2CCN(C(C)=O)CC2)=NC1=O = 5.99
43. Cc1ccc(N(CN2C(=O)NC(C)(C)C2=O)CN2C(=O)NC(C)(C)C2=O)cc1 = 15.5
44. OCCCc1nc2ccccc2n1CCc1ccccc1 = -7.48
45. CCN(CC)CCCC1(CN)OCCc2ccccc21 (stereo unspecified) = -16.2
46. c1ccc(SCc2nc3ccccc3[nH]2)nc1 = 6.97
